# Test system: mammalian cells
# assay_summary: Arrayed SSAP library screening, cell viability by live cell counts via flow cytometry
# Format: cell-based
# Procedure: Each SSAP encoding plasmid was tested in duplicate, including a negative control (same plasmid encoding Flag_HA which is not expected to promote gene editing). Transfections were in 96-well plates and transfection efficiency was estimated to be 50%. Three days after transfection, mKate positive cells and cell viability were quantified across all replicates, along with positive (original RecT SSAP) and negative (Flag-HA control protein) controls. […]
Cell Viability (Average, two targets) vs 1: at or above is true (1), below is false (0).

* SSAP_10: SEQ ID NO: 179; Bet Escherichia coli (protein, listed as Escherichia coli) STALATLAGKLAERVGMDSVDPQELITTLRQTAFKGDASDAQFIALLIVANQYGLNPWTKEIYAFPDKQNGIVPVVGVDGWSRIINENQQFDGMDFEQDNESCTCRIYRKDRNHPICVTEWMDECRREPFKTREGREITGPWQSHPKRMLRHKAMIQCARLAFGFAGIYDKDEAERIVENTAYTAERQPERDITPVNNETMQEINTLLIALDKTWDDDLLPLCSQIFRRDIRASSELTQAEAVKALGFLKQKATEQKVAA | true (1)
* SSAP_194: SEQ ID NO: 363; Streptomyces sp. CS014 (protein, listed as Streptomyces sp.) TENTVTAAVAVRDTGPAAQIEAYRDEYAALVPSHINADQWVRLAVGAIRGNEDLTNAARTDIGVFLRELKTAARLGLEPGTEQFYLTPRKSKAHRGQKIIKGIVGYQGIIELIYRAGAVSSVIVESVRANDTFRYVIGRDERPVHEIDWFGGDRGDLVGVYAYATMKDGATSKVVVLNHAQVMQIRAKSDSKHSEYSPWNTNPESMWLKSAVRQLMKWVPTSAEYMREQLRAQAEVAAEQPPAADLPPMPSVELNDEDEAVDAELVDEEA | true (1)
* SSAP_36: SEQ ID NO: 205 (protein) SSIAAAAESAEVTPASIINKYRDDIATVLPPKLRERIDRWIRLAIGAVNSNPELISRVRADQGASMMQALMKCAALGHEPGSGLFHLVPKGSRIEGWEDYKGILQRIDRSGVYARTVIGVVYANDEYSYDQNVDERPRHVRATGDRGEPISSYAYAVYPSGAITTVAEATPEQIASSKSKARGADNAASPWRAPGAPMHRKVAVRLLEKHVATSAEDRREPISRSAANDVVIDATADYYQEP | false (0)
* SSAP_6: SEQ ID NO: 175 (protein) STALATLAGKLAERVGMDSVDPQELITTLRQTAFKGDASDAQFIALLIVANQYGLNPWTKEIYAFPDKQNGIVPVVGVDGWSRIINENQQFDGMDFEQDNESCTCRIYRKDRNHPICVTEWMDECRREPFKTREGREITGPWQSHPKRMLRHKAMIQCARLAFGFAGIYDKDEAERIVENTAYTAERQPERDITPVNDETMQEINTLLIALDKTWDDDLLPLCSQIFRRDIRASSELTQAEAVKALGFLKQKATEQKVAA | true (1)
* SSAP_229: SEQ ID NO: 398; Amycolatopsis sp. CB00013 (protein, listed as Amycolatopsis sp.) TTQTVTSAVAQQDSSPAALVRKYRTDFATVLPSHIKPETWLRIATGALRRSSQLAHAAEKNPTSLLVALLDAARKGLEPGTEQYYLVPRKTKRGPEVLGITGYQGEVELMYRAGAVSSVKVEGVREHDTFAYNPGEHDRPVHEINWRANRGDLVLAYAYAYAKMRDGATSNVSVLSADDIAVILSKAEGADSPFSPWQWNPKAMWLKSAAHQLAKWVPTSAERVWQPDGPPLEAPPATPVTLPTVEDVVDAEVVEDWPTTPADTADSEQ | false (0)
* SSAP_173: SEQ ID NO: 342; Tyzzerella nexilis (protein, listed as Tyzzerella nexilis) AGVKEELAKKAESTKGETKLTKSMSIADLIKAMEPEIKKALPEVITPERFTRMALSALNTTPKLRECTQMSFLAALMNAAQLGLEPNTPLGQAYLIPYNNKGVMECQFQIGYKGLIDLSYRNPQMQIISAQAVYENDDFSYELGLNPKLEHCPTLGERGEVRLFYGFFKLVNGGFGFEVMSKTAMDEYAKEYSKAFDSSFSPWKSNYIGMAKKTVIKQALKYAPLKTDFRKALSNDETIKTELSDDMSDIHGEEIWDVEYQEKTA | false (0)
* SSAP_190: SEQ ID NO: 359; Microbacterium laevaniformans OR221 (protein, Microbacterium laevaniformans, Microbacterium laevaniformans OR221) TDLSTVAAAAKQNPTMKDLVEAQLPAIERQLGGTMNSDAFVRAVLSEITKSPDLMQADPKTLLGGVMLAAQLRLEIGSGLGEFYLTPRKDHGRMICLPIVGFQGMVKLALRSEFVTNVQAFIVREGDDFTYGANAERGMFYDWTPKDFEEKRPMVGVVATARMKQGGTTWAYLTREQVEDRRPSYWQKTPWGSHPDEMAKKTAVRALAKYLPKATDLGRAIEADEQKVQHVKGLDEVTVTRLDDEPETVVVQETTDAWAATPVAEVQP | true (1)
